Origin of values: the supplement of paper PMC11061612

- Tested on: TK10 (Kidney Carcinoma)
- assayMethodText: combination Emax (second highest fraction inhibited in the dose matrix, 72 h); higher = more inhibition; extreme values may be limits of the assay

>  <compound>
Cc1c2c(nn1C)CSCc1cc(n(C)n1)CSc1cc(c3ccccc3c1)OCCCc1c(C(=O)O)n(C)c3c-2c(Cl)ccc13 [AZD5991] + C1CN(CCC1(C(=O)N[C@@H](CCO)C2=CC=C(C=C2)Cl)N)C3=NC=NC4=C3C=CN4 [Capivasertib] (first compound max 1 µM, 7x7, partner max 3 µM)

>  <combination Emax>
0.257

$$$$
>  <compound>
CC1(C)CCC(CN2CCN(c3ccc(C(=O)NS(=O)(=O)c4ccc(NCC5CCOCC5)c([N+](=O)[O-])c4)c(Oc4cnc5[nH]ccc5c4)c3)CC2)=C(c2ccc(Cl)cc2)C1 [Venetoclax] + C[C@@H]1COCCN1C2=NC(=NC(=C2)C3(CC3)[S@](=N)(=O)C)C4=C5C=CNC5=NC=C4 [AZD6738] (first compound max 1 µM, 7x7, partner max 10 µM)

>  <combination Emax>
0.609

$$$$
>  <compound>
Cc1cc2ncnn2cc1Nc1ncc2c(n1)n(C1CCOCC1)c(=O)n2C [AZD7648] + C=CCn1c(=O)c2cnc(Nc3ccc(N4CCN(C)CC4)cc3)nc2n1-c1cccc(C(C)(C)O)n1 [AZD1775] (first compound max 10 µM, partner max 1 µM)

>  <combination Emax>
0.63

$$$$
